# Tested on: PBMCs
# experimentDescription: PBMC cytotoxicity in time-of-addition assay
# Assay type: cell-based, Human
# conditionsUsed: at infection
Entries and their TC50
endpoint: TC50

INSERT INTO measurements (compound, resultvalue) VALUES
  ('COc1cc(C(C)(C)CCCC(C)C)cc(OC)c1OC', '>100 µM'),
  ('C=C(C)[C@@H]1CCC(C)=C[C@H]1c1c(O)cc(CCCCC)cc1O [Cannabidiol, reference compound]', '>100 µM'),
  ('CC(C)=CCCC1(C)CCc2c(O)cc(C(C)(C)CCCC(C)C)cc2O1 (stereo not shown)', '>100 µM'),
  ('Cc1cn([C@H]2C[C@H](N=[N+]=[N-])[C@@H](CO)O2)c(=O)[nH]c1=O [AZT, reference compound]', '>4 µM');
